All values here come from patent US20050209278A1.

Items are presented alongside their recorded Ki.
- SUBJECT OF TEST: MMP-13 (Homo sapiens)
- Construct: made in house; host or cells: baculovirus / insect cells
- METHOD DESCRIPTION: MMP-13 inhibition (in vitro Ki)
- Format: biochemical
- EXPERIMENTAL PARAMETERS: Table 9; read-out: MMP-13 Ki (IC-50)
ENDPOINT LABEL: Ki (nM)

compound="COC(=O)CCCC1CCN(S(=O)(=O)C2(C(=O)NO)CCOCC2)CC1 [Example A148]" subject_of_test="MMP-13 (Homo sapiens)" unit_of_measure=nM obs_value=5.21
compound="CN(C(=O)CCCCC1CCN(S(=O)(=O)C2(C(=O)NO)CCOCC2)CC1)c1ccc(F)cc1 [Example A93]" subject_of_test="MMP-13 (Homo sapiens)" unit_of_measure=nM obs_value=0.82
compound="CN(C(=O)CCCC1CCN(S(=O)(=O)C2(C(=O)NO)CCOCC2)CC1)c1ccccc1 [Example A143]" subject_of_test="MMP-13 (Homo sapiens)" unit_of_measure=nM obs_value=50.8
compound="O=C(NO)C1(S(=O)(=O)N2CCC(c3ccc(CCC(F)(F)C(F)(F)F)cn3)CC2)CCN(c2ccccc2)CC1 [Example A167]" subject_of_test="MMP-13 (Homo sapiens)" unit_of_measure=nM obs_value=1.54

====

Items are presented alongside their recorded Ki.
- SUBJECT OF TEST: MMP-13 (Homo sapiens)
- Construct: made in house; host or cells: baculovirus / insect cells
- METHOD DESCRIPTION: In vitro MMP inhibition, Ki determination (fluorogenic substrate II)
- Type: biochemical
- EXPERIMENTAL PARAMETERS: value not in parenthesis; read-out: MMP-13 Ki
ENDPOINT LABEL: Ki (nM)

smiles_repr=CCCc1ccc(N2CCN(S(=O)(=O)C3(C(=O)NO)CCN(CCOC)CC3)CC2)cc1 endpoint_label=Ki unit_of_measure=nM obs_value=1.61
smiles_repr=CCCCCc1ccc(N2CCN(S(=O)(=O)C3(C(=O)NO)CCN(S(N)(=O)=O)CC3)CC2)cc1 endpoint_label=Ki unit_of_measure=nM obs_value=2.4
smiles_repr=CCCCOc1ccc(N2CCN(S(=O)(=O)C3(C(=O)NO)CCN(C(=O)N4CCN(C)CC4)CC3)CC2)cc1 endpoint_label=Ki unit_of_measure=nM obs_value=0.27
smiles_repr=COCCN1CCC(C(=O)NO)(S(=O)(=O)N2CCN(c3ccc(OCC(F)(F)C(F)(F)F)cc3)CC2)CC1 endpoint_label=Ki unit_of_measure=nM obs_value=0.306
smiles_repr=O=C(c1cccnc1)N1CCC(C(=O)NO)(S(=O)(=O)N2CCN(c3ccc(OCCCC(F)(F)F)cc3)CC2)CC1 endpoint_label=Ki unit_of_measure=nM obs_value=0.03
smiles_repr=CCCCOc1ccc(N2CCN(S(=O)(=O)C3(C(=O)NO)CCN(c4ccsc4)CC3)CC2)cc1 endpoint_label=Ki unit_of_measure=nM obs_value=1.4
smiles_repr=CCCCCc1ccc(N2CCN(S(=O)(=O)C3(C(=O)NO)CCN(S(=O)(=O)N(C)C)CC3)CC2)cc1 endpoint_label=Ki unit_of_measure=nM obs_value=1.47

====

- SUBJECT OF TEST: MMP-14 (Homo sapiens)
- Construct: The catalytic domain enzyme was expressed in E. coli inclusion bodies, solubilized in urea; made in house
- METHOD DESCRIPTION: In vitro MMP inhibition, Ki determination (fluorogenic substrate II)
- Assay type: biochemical
- EXPERIMENTAL PARAMETERS: value not in parenthesis; read-out: MMP-14 Ki
Items are presented alongside their recorded log10 Ki.
ENDPOINT LABEL: log10 Ki (log10 of the value in nM)

molecule="CCCCCc1ccc(N2CCN(S(=O)(=O)C3(C(=O)NO)CCN(S(C)(=O)=O)CC3)CC2)cc1 [Example 237]" endpoint_label="log10 Ki" obs_value=3.85
molecule="CCCCCc1ccc(N2CCN(S(=O)(=O)C3(C(=O)NO)CCOCC3)CC2)nc1 [Example 167]" endpoint_label="log10 Ki" obs_value=2.66
molecule="CCCCOc1ccc(N2CCN(S(=O)(=O)C3(C(=O)NO)CCN(C(=O)N(C(C)C)C(C)C)CC3)CC2)cc1 [Example 244]" endpoint_label="log10 Ki" obs_value=3.73
molecule="CC(C)COc1ccc(N2CCN(S(=O)(=O)C3(C(=O)NO)CCOCC3)CC2)cc1Cl [Example 79]" endpoint_label="log10 Ki" obs_value=3.95
molecule="CCCc1ccc(N2CCN(S(=O)(=O)C3(C(=O)NO)CCN(CCOC)CC3)CC2)cc1 [Example 200]" endpoint_label="log10 Ki" obs_value=2.93
molecule="Cc1ccc(N2CCN(S(=O)(=O)C3(C(=O)NO)CCOCC3)CC2)nc1 [Example 138]" endpoint_label="log10 Ki" obs_value=1.82
molecule="O=C(NO)C1(S(=O)(=O)N2CCN(c3ccc(CCC(F)(F)F)cc3)CC2)CCOCC1 [Example 77]" endpoint_label="log10 Ki" obs_value=3.07
molecule="O=C(NO)C1(S(=O)(=O)N2CCN(c3ccc(OCCCC(F)(F)F)cc3)CC2)CCN(C2CC2)CC1 [Example 153]" endpoint_label="log10 Ki" obs_value=3.83
molecule="CCCCc1ccc(N2CCN(S(=O)(=O)C3(C(=O)NO)CCN(c4ncccn4)CC3)CC2)nc1 [Example 99]" endpoint_label="log10 Ki" obs_value=2.35
molecule="CCCCOc1ccc(N2CCN(S(=O)(=O)C3(C(=O)NO)CCN(C(=O)N(CC)CC)CC3)CC2)cc1 [Example 242]" endpoint_label="log10 Ki" obs_value=3.38
molecule="CCCCc1ccc(N2CCN(S(=O)(=O)C3(C(=O)NO)CCOCC3)CC2)c(F)c1 [Example 91]" endpoint_label="log10 Ki" obs_value=3.24
molecule="O=C(NO)C1(S(=O)(=O)N2CCN(c3ccccn3)CC2)CCOCC1 [Example 169]" endpoint_label="log10 Ki" obs_value=1.93
